assay.summary: Plasma pharmacokinetics (LC-MS/MS, noncompartmental; GMR by linear mixed-effects model)
condition.set: human, plasma, oral, T1/2, arithmetic mean [n] (SD), Day 1; plasma; Treatment H (placebo + aspirin), Part 3
value.type: half-life (h)
Note: unit h is implicit; provide only the numeric part.

Lookup: Consider the compound "O=C(O)c1ccccc1O" and give its measured half-life.
Found: 2.4

====

assay.summary: Plasma pharmacokinetics (LC-MS/MS, noncompartmental; GMR by linear mixed-effects model)
condition.set: human, plasma, oral, Median Tmax, across Treatments A and B
value.type: Tmax

Lookup: Consider the molecule "C[C@@H]1CCC[C@H](n2cnc(-c3cc(Cl)ccc3-n3cc(Cl)nn3)cc2=O)c2cc(ccn2)-c2c(cnn2C(F)F)NC1=O" and give its measured Tmax.
Found: 3 to 4 h

====

assay.summary: Plasma pharmacokinetics (LC-MS/MS, noncompartmental; GMR by linear mixed-effects model)
condition.set: human, plasma, oral, Cmax, geometric mean (90% CI), Day 1; plasma; Treatment B (milvexian alone), Part 1
value.type: Cmax (ng/mL)
Note: unit ng/mL is implicit; provide only the numeric part.

Lookup: Consider the compound "C[C@@H]1CCC[C@H](n2cnc(-c3cc(Cl)ccc3-n3cc(Cl)nn3)cc2=O)c2cc(ccn2)-c2c(cnn2C(F)F)NC1=O" and give its measured Cmax.
Found: 868

====

assay.summary: Plasma pharmacokinetics (LC-MS/MS, noncompartmental; GMR by linear mixed-effects model)
condition.set: human, plasma, oral, Tmax, median (range), Day 1; plasma; Treatment H (placebo + aspirin), Part 3
What Tmax was measured for each of the following?
Answer shape: numeric part, then the unit.

Lookup: Consider the molecule CC(=O)Oc1ccccc1C(=O)O [Aspirin, acetylsalicylic acid, reference compound] and give its measured Tmax.
Found: 0.5 h

Lookup: Consider the molecule O=C(O)c1ccccc1O [Salicylic acid, salicylic acid] and give its measured Tmax.
Found: 2.03 h

====

assay.summary: Plasma pharmacokinetics (LC-MS/MS, noncompartmental; GMR by linear mixed-effects model)
condition.set: human, plasma, oral, Tmax, median [n] (range), Day 5; plasma; Treatment D (milvexian alone), Part 2
value.type: Tmax (h)
Note: unit h is implicit; provide only the numeric part.

Lookup: Consider the molecule "C[C@@H]1CCC[C@H](n2cnc(-c3cc(Cl)ccc3-n3cc(Cl)nn3)cc2=O)c2cc(ccn2)-c2c(cnn2C(F)F)NC1=O" and give its measured Tmax.
Found: 3.05

====

assay.summary: Plasma pharmacokinetics (LC-MS/MS, noncompartmental; GMR by linear mixed-effects model)
condition.set: human, plasma, oral, Cmax, geometric mean [n] (90% CI), Day 5; plasma; Treatment B (milvexian alone), Part 1
value.type: Cmax (ng/mL)
Note: unit ng/mL is implicit; provide only the numeric part.

Lookup: Consider the compound "C[C@@H]1CCC[C@H](n2cnc(-c3cc(Cl)ccc3-n3cc(Cl)nn3)cc2=O)c2cc(ccn2)-c2c(cnn2C(F)F)NC1=O" and give its measured Cmax.
Found: 2690

====

assay.summary: Plasma pharmacokinetics (LC-MS/MS, noncompartmental; GMR by linear mixed-effects model)
condition.set: human, plasma, oral, AUC(TAU), geometric mean [n] (90% CI), Day 5; plasma; Treatment H (placebo + aspirin), Part 3
value.type: AUC (ng·h/mL)
Note: unit ng·h/mL is implicit; provide only the numeric part.

Lookup: Consider the molecule "O=C(O)c1ccccc1O" and give its measured AUC.
Found: 92500

====

assay.summary: Plasma pharmacokinetics (LC-MS/MS, noncompartmental; GMR by linear mixed-effects model)
condition.set: human, plasma, oral, Cmax, geometric mean [n] (90% CI), Day 5; plasma; Treatment H (placebo + aspirin), Part 3
What Cmax was measured for each of the following?

Lookup: Consider the compound CC(=O)Oc1ccccc1C(=O)O [Aspirin, acetylsalicylic acid, reference compound] and give its measured Cmax.
Found: 2.67 µg/mL

Lookup: Consider the compound "O=C(O)c1ccccc1O" and give its measured Cmax.
Found: 16.5 µg/mL

====

assay.summary: Plasma pharmacokinetics (LC-MS/MS, noncompartmental; GMR by linear mixed-effects model)
condition.set: human, plasma, oral, Tmax, median [n] (range), Day 5; plasma; Treatment H (placebo + aspirin), Part 3
What Tmax was measured for each of the following?
Answer shape: numeric part, then the unit.

Lookup: Consider the molecule CC(=O)Oc1ccccc1C(=O)O [Aspirin, acetylsalicylic acid, reference compound] and give its measured Tmax.
Found: 0.508 h

Lookup: Consider the molecule "O=C(O)c1ccccc1O" and give its measured Tmax.
Found: 3 h

====

assay.summary: Plasma pharmacokinetics (LC-MS/MS, noncompartmental; GMR by linear mixed-effects model)
condition.set: human, plasma, oral, T1/2, arithmetic mean [n] (SD), Day 5; plasma; Treatment C (placebo + aspirin + clopidogrel), Part 1
value.type: half-life (h)
Note: unit h is implicit; provide only the numeric part.

Lookup: Consider the molecule "O=C(O)c1ccccc1O" and give its measured half-life.
Found: 2.23

====

assay.summary: Plasma pharmacokinetics (LC-MS/MS, noncompartmental; GMR by linear mixed-effects model)
condition.set: human, plasma, oral, T1/2, arithmetic mean [n] (SD), Day 1; plasma; Treatment C (placebo + aspirin + clopidogrel), Part 1
value.type: half-life (h)
Note: unit h is implicit; provide only the numeric part.

Lookup: Consider the compound "O=C(O)c1ccccc1O" and give its measured half-life.
Found: 2.25

====

assay.summary: Plasma pharmacokinetics (LC-MS/MS, noncompartmental; GMR by linear mixed-effects model)
condition.set: human, plasma, oral, T1/2, arithmetic mean [n] (SD), Day 1; plasma; Treatment A (milvexian + aspirin + clopidogrel), Part 1
value.type: half-life (h)
Note: unit h is implicit; provide only the numeric part.

Lookup: Consider the compound O=C(O)c1ccccc1O [Salicylic acid, salicylic acid] and give its measured half-life.
Found: 2.21

====

assay.summary: Plasma pharmacokinetics (LC-MS/MS, noncompartmental; GMR by linear mixed-effects model)
condition.set: human, plasma, oral, Mean T1/2, with (Treatment F) and without (Treatment E) milvexian, Days 1 and 5
value.type: half-life

Lookup: Consider the molecule "COC(=O)[C@H](c1ccccc1Cl)N1CCc2sccc2C1" and give its measured half-life.
Found: 1 to 2 h

====

assay.summary: Plasma pharmacokinetics (LC-MS/MS, noncompartmental; GMR by linear mixed-effects model)
condition.set: human, plasma, oral, Cmax, geometric mean (90% CI), Day 1; plasma; Treatment F (milvexian + clopidogrel), Part 2
value.type: Cmax (ng/mL)
Note: unit ng/mL is implicit; provide only the numeric part.

Lookup: Consider the compound "C[C@@H]1CCC[C@H](n2cnc(-c3cc(Cl)ccc3-n3cc(Cl)nn3)cc2=O)c2cc(ccn2)-c2c(cnn2C(F)F)NC1=O" and give its measured Cmax.
Found: 817

====

assay.summary: Plasma pharmacokinetics (LC-MS/MS, noncompartmental; GMR by linear mixed-effects model)
condition.set: human, plasma, oral, Cmax, geometric mean [n] (90% CI), Day 5; plasma; Treatment C (placebo + aspirin + clopidogrel), Part 1
value.type: Cmax (ng/mL)
Note: unit ng/mL is implicit; provide only the numeric part.

Lookup: Consider the compound CC(=O)Oc1ccccc1C(=O)O [Aspirin, acetylsalicylic acid, reference compound] and give its measured Cmax.
Found: 2890

Lookup: Consider the compound "O=C(O)c1ccccc1O" and give its measured Cmax.
Found: 17300

====

assay.summary: Plasma pharmacokinetics (LC-MS/MS, noncompartmental; GMR by linear mixed-effects model)
condition.set: human, plasma, oral, Cmax, geometric mean [n] (90% CI), Day 5; plasma; Treatment D (milvexian alone), Part 2
value.type: Cmax (ng/mL)
Note: unit ng/mL is implicit; provide only the numeric part.

Lookup: Consider the molecule C[C@@H]1CCC[C@H](n2cnc(-c3cc(Cl)ccc3-n3cc(Cl)nn3)cc2=O)c2cc(ccn2)-c2c(cnn2C(F)F)NC1=O [Milvexian] and give its measured Cmax.
Found: 2670

====

assay.summary: Plasma pharmacokinetics (LC-MS/MS, noncompartmental; GMR by linear mixed-effects model)
condition.set: human, plasma, oral, AUC(TAU), geometric mean [n] (90% CI), Day 5; plasma; Treatment C (placebo + aspirin + clopidogrel), Part 1
value.type: AUC

Lookup: Consider the compound "O=C(O)c1ccccc1O" and give its measured AUC.
Found: 92000 ng·h/mL

====

assay.summary: Plasma pharmacokinetics (LC-MS/MS, noncompartmental; GMR by linear mixed-effects model)
condition.set: human, plasma, oral, Cmax, geometric mean (90% CI), Day 1; plasma; Treatment I (milvexian + aspirin), Part 3
value.type: Cmax (ng/mL)
Note: unit ng/mL is implicit; provide only the numeric part.

Lookup: Consider the compound C[C@@H]1CCC[C@H](n2cnc(-c3cc(Cl)ccc3-n3cc(Cl)nn3)cc2=O)c2cc(ccn2)-c2c(cnn2C(F)F)NC1=O [Milvexian] and give its measured Cmax.
Found: 850

Lookup: Consider the compound O=C(O)c1ccccc1O [Salicylic acid, salicylic acid] and give its measured Cmax.
Found: 16300

Lookup: Consider the compound CC(=O)Oc1ccccc1C(=O)O [Aspirin, acetylsalicylic acid, reference compound] and give its measured Cmax.
Found: 3440

====

assay.summary: Plasma pharmacokinetics (LC-MS/MS, noncompartmental; GMR by linear mixed-effects model);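 further: participants at one US clinical research site, randomized 1:1:1 to a single study part, with 90% CIs from a mixed-effects model on log-transformed PK parameters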
condition.set: human, plasma, oral, T1/2, arithmetic mean [n] (SD), Day 1; plasma; Treatment I (milvexian + aspirin), Part 3
value.type: half-life (h)
Note: unit h is implicit; provide only the numeric part.

Lookup: Consider the compound O=C(O)c1ccccc1O [Salicylic acid, salicylic acid] and give its measured half-life.
Found: 2.39

The measurements presented in this section are drawn from paper PMC11258331.
